MEASURE NAME: melting point (°C)
Reply numerically in °C, unit not repeated.

Some solved entries appear below for comparison.
CCCCN1C(=NC23CC4CC(CC(C4)C2)C3)SCC1CC(=O)Nc1cc(Cl)ccc1F.Cl (stereo not drawn): 156
CN1C(=NC2CCCCC2)SCC1CC(=O)Nc1ccc(Cl)c(Cl)c1.Cl (stereo not drawn): 223
CN1C(=NC2CCCCCC2)SCC1C(=O)Nc1ccc(Cl)cc1 (stereo not drawn): 199.7
CCCCN1C(=NC2CCCCC2)SCC1CC(=O)Nc1ccc(F)cc1.Cl (stereo not drawn): 203.5
CC(C)c1ccc(NC(=O)CC2CSC(=NC3CCCCC3)N2C2CCCCC2)cc1.Cl (stereo not drawn): 199.7

Query string: Consider the molecule Cl.O=C(CC1CSC(=NC2CCCCC2)N1C1CC1)Nc1ccc(C(F)(F)F)cc1 (stereo not drawn) and give its measured melting point.
Result string: 240.8

* * *

MEASURE NAME: melting point

Some solved entries appear below for comparison.
CC1SC(=NC2CCCCC2)N(C)C1CC(=O)Nc1ccc(Br)cc1 (stereo not shown) [KHG24482]: 260 to 262 °C
CC1SC(=NC2CCCCC2)N(C)C1CC(=O)Nc1cc(CF)cc(CF)c1.Cl (stereo not shown) [KHG24522]: 244 to 246 °C
CCOc1ccc(NC(=O)CC2CSC(=NC3CC3)N2C)cc1.Cl (stereo not shown): 219 to 220 °C

Moving on to another compound below.
Query string: Consider the compound COc1cccc(N=C2SCC(CC(=O)Nc3ccc(Cl)cc3)N2C)c1.Cl (stereo not shown) [KHG21649] and give its measured melting point.
Result string: 228 to 231 °C

* * *

A collection of molecules and their measured melting point

Some solved entries appear below for comparison.
Cl.O=C(CC1CSC(=NC23CC4CC(CC(C4)C2)C3)N1C1CC1)Nc1cc(C(F)(F)F)cc(C(F)(F)F)c1 (centres unmarked): 258 °C
CN1C(=NC2CCCCCC2)SCC1CC(=O)Nc1ccc([N+](=O)[O-])cc1.Cl (centres unmarked): 242 °C
CC(C)c1ccc(NC(=O)CC2CSC(=Nc3ccc(C(F)(F)F)cc3)N2C)cc1.Cl (centres unmarked): 238 to 242.8 °C

Query string: Consider the molecule Cc1ccc(NC(=O)CC2CSC(=NC3CCCCC3)N2C2CCCCC2)cc1Cl.Cl (centres unmarked) and give its measured melting point.
Result string: 173 °C

Query string: Consider the molecule CC(C)Oc1cccc(N=C2SCC(CC(=O)Nc3ccc(Cl)cc3)N2C)c1.Cl (centres unmarked) and give its measured melting point.
Result string: 201 to 203 °C

* * *

A collection of compounds and their measured melting point
Reply numerically in °C, unit not repeated.

Some solved entries appear below for comparison.
CC(C)N1C(=NC23CC4CC(CC(C4)C2)C3)SCC1CC(=O)Nc1ccc(CF)cc1.Cl (stereo not drawn): 227
CCCCN1C(=NC23CC4CC(CC(C4)C2)C3)SCC1CC(=O)Nc1ccc(Oc2ccccc2)cc1.Cl (stereo not drawn): 127
CCCCc1ccc(NC(=O)CC2CSC(=NC3CCCCC3)N2CCCC)cc1.Cl (stereo not drawn): 209.1

Moving on to another compound below.
Query string: Consider the compound Cl.O=C(CC1CSC(=NC2CCCCC2)N1C1CCCCC1)Nc1ccc(F)cc1 (stereo not drawn) and give its measured melting point.
Result string: 256
